// reported DC50 for each item listed
- target.entity: HiBit-BRM fusion protein (Homo sapiens, UniProt P51531)
- Construct: expressed in transfected cells
- Sequence (P51531 whole entry, the tested form may be a part): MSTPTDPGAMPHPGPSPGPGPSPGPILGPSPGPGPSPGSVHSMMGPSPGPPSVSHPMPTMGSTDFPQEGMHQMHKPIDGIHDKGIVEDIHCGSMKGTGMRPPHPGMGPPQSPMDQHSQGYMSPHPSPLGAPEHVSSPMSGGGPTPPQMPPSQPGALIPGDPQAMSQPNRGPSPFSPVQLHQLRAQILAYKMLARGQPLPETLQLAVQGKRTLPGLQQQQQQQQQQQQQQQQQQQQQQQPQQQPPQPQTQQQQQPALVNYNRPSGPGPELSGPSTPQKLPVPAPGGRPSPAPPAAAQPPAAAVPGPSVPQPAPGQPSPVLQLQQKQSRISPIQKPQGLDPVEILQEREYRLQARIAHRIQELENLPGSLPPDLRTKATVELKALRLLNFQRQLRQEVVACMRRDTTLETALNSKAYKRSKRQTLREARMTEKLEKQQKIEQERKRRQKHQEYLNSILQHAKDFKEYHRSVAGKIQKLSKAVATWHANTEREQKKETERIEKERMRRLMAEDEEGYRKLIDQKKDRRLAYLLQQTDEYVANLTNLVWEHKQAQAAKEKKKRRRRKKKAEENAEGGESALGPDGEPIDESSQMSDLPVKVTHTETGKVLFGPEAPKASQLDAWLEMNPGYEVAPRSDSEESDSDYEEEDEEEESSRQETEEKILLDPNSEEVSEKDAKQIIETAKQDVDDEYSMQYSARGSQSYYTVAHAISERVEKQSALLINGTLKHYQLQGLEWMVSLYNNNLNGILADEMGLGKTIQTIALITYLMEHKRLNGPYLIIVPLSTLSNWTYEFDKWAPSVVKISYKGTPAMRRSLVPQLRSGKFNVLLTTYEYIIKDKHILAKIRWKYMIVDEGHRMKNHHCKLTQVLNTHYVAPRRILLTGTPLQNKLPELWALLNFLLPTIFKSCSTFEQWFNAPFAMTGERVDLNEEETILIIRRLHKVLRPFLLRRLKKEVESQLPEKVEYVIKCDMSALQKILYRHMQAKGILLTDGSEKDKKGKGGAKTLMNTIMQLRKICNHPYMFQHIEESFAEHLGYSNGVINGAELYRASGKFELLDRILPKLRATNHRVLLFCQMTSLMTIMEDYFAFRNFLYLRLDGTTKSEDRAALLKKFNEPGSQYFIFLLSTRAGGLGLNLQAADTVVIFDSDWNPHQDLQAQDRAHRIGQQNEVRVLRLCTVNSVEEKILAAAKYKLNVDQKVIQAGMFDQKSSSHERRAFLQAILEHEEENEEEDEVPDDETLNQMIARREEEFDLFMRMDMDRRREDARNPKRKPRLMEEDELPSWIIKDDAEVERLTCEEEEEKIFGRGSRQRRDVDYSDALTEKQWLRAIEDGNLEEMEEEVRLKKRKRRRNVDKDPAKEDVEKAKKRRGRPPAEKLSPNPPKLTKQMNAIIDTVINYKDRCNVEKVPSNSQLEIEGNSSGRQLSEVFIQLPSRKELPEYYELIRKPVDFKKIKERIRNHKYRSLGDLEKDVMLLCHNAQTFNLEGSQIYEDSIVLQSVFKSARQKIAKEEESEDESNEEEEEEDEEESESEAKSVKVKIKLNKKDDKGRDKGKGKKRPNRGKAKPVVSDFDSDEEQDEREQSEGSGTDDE
- protocol.description: HiBiT-BRM cell-based degradation assay (Nano-Glo HiBiT Lytic Detection, 24 h)
- condition.label: HeLa cell line expressing HiBiT-BRM, read-out: BRM HiBit Degradation IC50

Here is how some compounds turned out for DC50.
# compound, target.entity, DC50
measured = [
    ("Cc1ncsc1-c1ccc([C@H](C)NC(=O)[C@@H]2C[C@@H](O)CN2C(=O)[C@@H](c2cc(OCCNCc3ccc(Cc4cc5cc(-c6ccccc6O)nnc5[nH]4)cc3)no2)C(C)C)cc1 (racemic) [Compound 295]", "HiBit-BRM fusion protein (Homo sapiens, UniProt P51531)", "> 10 nM"),
    ("Cc1ncsc1-c1ccc([C@H](C)NC(=O)[C@@H]2C[C@@H](O)CN2C(=O)[C@@H](c2cc(N3C[C@H]4C[C@@H]3CN4C(=O)[C@H]3C[C@]4(Cc5cc(-c6ccccc6O)nnc5N4)C3)no2)C(C)C)cc1 (racemic) [Compound 76]", "HiBit-BRM fusion protein (Homo sapiens, UniProt P51531)", "> 100 nM"),
    ("Cc1ncsc1-c1ccc([C@H](C)NC(=O)[C@@H]2C[C@@H](O)CN2C(=O)[C@@H](c2cc(OCCN3CC(c4c(C)[nH]c5nnc(-c6ccccc6O)cc45)C3)no2)C(C)C)cc1 (racemic) [Compound 254]", "HiBit-BRM fusion protein (Homo sapiens, UniProt P51531)", "> 10 nM"),
]

IN: Tell me the measured DC50 of Cc1ncsc1-c1ccc([C@H](C)NC(=O)[C@@H]2C[C@@H](O)CN2C(=O)[C@@H](c2cc(C3CN(C(=O)[C@@H]4CCc5[nH]c6nnc(-c7ccccc7O)cc6c5C4)C3)no2)C(C)C)cc1 (single isomer, unassigned) [Compound 158] , please.
OUT: > 100 nM

IN: What do you get for Cc1ncsc1-c1ccc([C@H](C)NC(=O)[C@@H]2C[C@@H](O)CN2C(=O)[C@@H](c2cc(N3CCC(CN[C@@H]4CCc5[nH]c6nnc(-c7ccccc7O)cc6c5C4)CC3)no2)C(C)C)cc1 (single isomer, unassigned) [Compound 173] ?
OUT: > 100 nM

IN: What do you get for Cc1ncsc1-c1ccc([C@H](C)NC(=O)[C@@H]2C[C@@H](O)CN2C(=O)[C@@H](c2cc(C3CCN(C(=O)[C@H]4C[C@]5(Cc6cc(-c7ccccc7O)nnc6N5)C4)CC3)no2)C(C)C)cc1 (racemic) [Compound 75] ?
OUT: > 10 nM

###

// reported Dmax for each item listed
- target.entity: HiBit-BRG1 fusion protein (Homo sapiens, UniProt P51532)
- Construct: expressed in transfected cells
- Sequence (P51532 whole entry, the tested form may be a part): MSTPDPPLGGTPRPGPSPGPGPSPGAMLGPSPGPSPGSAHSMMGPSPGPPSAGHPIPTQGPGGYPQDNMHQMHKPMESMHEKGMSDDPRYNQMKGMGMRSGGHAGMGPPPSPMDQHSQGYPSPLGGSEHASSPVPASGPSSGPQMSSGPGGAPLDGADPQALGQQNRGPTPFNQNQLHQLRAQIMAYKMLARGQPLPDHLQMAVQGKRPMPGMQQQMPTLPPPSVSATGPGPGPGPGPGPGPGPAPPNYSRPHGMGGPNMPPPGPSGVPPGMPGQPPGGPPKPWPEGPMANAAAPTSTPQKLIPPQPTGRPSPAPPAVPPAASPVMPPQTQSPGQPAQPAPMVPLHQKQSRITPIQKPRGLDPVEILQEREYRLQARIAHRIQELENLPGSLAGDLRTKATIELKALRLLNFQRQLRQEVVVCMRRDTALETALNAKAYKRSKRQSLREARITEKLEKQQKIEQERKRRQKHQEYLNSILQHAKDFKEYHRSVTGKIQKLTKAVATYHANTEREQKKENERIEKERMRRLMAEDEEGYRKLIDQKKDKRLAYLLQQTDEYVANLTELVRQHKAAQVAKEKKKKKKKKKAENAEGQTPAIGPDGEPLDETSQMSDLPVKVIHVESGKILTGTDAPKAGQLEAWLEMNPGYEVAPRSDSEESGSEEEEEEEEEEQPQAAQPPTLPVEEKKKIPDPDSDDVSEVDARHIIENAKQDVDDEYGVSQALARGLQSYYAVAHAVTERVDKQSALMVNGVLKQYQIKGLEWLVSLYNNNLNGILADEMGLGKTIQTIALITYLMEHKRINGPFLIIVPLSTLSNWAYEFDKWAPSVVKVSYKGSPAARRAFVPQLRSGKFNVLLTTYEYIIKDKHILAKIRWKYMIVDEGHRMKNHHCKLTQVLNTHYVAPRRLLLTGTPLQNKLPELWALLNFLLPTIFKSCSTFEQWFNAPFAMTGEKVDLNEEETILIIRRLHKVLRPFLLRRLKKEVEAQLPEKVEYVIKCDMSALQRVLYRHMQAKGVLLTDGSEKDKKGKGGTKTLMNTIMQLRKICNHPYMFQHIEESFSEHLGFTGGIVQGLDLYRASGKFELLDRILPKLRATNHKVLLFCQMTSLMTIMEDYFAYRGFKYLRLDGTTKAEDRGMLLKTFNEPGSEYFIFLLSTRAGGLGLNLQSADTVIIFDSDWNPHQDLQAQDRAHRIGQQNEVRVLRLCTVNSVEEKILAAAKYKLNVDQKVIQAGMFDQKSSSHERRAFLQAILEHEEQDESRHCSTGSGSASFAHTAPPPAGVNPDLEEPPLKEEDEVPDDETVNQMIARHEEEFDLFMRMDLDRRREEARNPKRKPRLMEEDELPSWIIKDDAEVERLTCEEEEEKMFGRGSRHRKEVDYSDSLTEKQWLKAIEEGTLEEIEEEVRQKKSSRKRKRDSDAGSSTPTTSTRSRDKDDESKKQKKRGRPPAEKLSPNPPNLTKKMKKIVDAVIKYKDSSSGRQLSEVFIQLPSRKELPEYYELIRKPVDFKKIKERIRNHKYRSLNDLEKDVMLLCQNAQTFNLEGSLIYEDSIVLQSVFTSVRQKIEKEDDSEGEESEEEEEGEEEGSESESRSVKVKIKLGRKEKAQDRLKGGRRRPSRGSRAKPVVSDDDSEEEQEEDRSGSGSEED
- protocol.description: HiBiT-BRG1 cell-based degradation assay (Nano-Glo HiBiT Lytic Detection, 24 h)
- condition.label: HeLa cell line expressing HiBit-BRG1 and LgBit, read-out: BRG1 HiBit Degradation Maximum (%)
- Experimental: Procedure: A stable HeLa cell line expressing HiBiT-BRM was generated. On day 0, 5000 cells were seeded in 40 μL of media into each well of 384-well cell culture plates. […] The plates were shaken for 10 minutes at room temperature and the bioluminescence read using an EnVision plate reader (PerkinElmer). […] The degradation % was calculated using the following formula: % degradation=100%−100%×(LumSample−LumLC)/(LumHC−LumLC). […]

Here is how some compounds turned out for Dmax.
# compound, Dmax
data = [
    ("Cc1ncsc1-c1ccc([C@H](C)NC(=O)[C@@H]2C[C@@H](O)CN2C(=O)[C@@H](c2cc(OCCN3CCC(C)(c4cc5cc(-c6ccccc6O)nnc5[nH]4)CC3)no2)C(C)C)cc1 (racemic) [Compound 276]", "> 50%"),
    ("Cc1ncsc1-c1ccc([C@H](C)NC(=O)[C@@H]2C[C@@H](O)CN2C(=O)[C@@H](c2cc(OCCN3CC(c4c(C)[nH]c5nnc(-c6ccccc6O)cc45)C3)no2)C(C)C)cc1 (racemic) [Compound 254]", "< 50%"),
]

The record that follows has no Dmax shown yet.
IN: Tell me the measured Dmax of Cc1ncsc1-c1ccc([C@H](C)NC(=O)[C@@H]2C[C@@H](O)CN2C(=O)[C@H](c2cc([C@H]3CC[C@H](c4cnc(N5CCC(c6c[nH]c7nnc(-c8ccccc8O)cc67)CC5)nc4)CC3)no2)C(C)C)cc1 [Compound 310] , please.
OUT: > 50%

These measurements were taken from patent US20240024488A1.
